Where these numbers come from: ChEMBL document CHEMBL3046443

Listing: Activity of selected compounds
test system: Rattus norvegicus; assay: Antihyperlipidemic activity in Rattus norvegicus Charles Foster (rat) trition WR-1339-induced hyperlipidemic model assessed as reduction of total triglyceride level in plasma at 200 mg/kg, po; format: functional; design: scale not given: the % may be the effect or the level left
Kindly answer with a numeric value in %, unit omitted.

Please review the entries below; each comes with its answer.
>>> number("O.O=C1CC(c2ccc(O)cc2)Oc2cc(O)cc(O)c21 (centres undefined) [NARINGENIN HYDRATE]")
26
>>> number("C[C@@H]1O[C@@H](OC[C@H]2O[C@@H](Oc3c(-c4ccc(O)c(O)c4)oc4cc(O)cc(O)c4c3=O)[C@H](O)[C@@H](O)[C@@H]2O)[C@H](O)[C@H](O)[C@H]1O")
11
>>> number("C/C=C1\\C(=O)C[C@H]2[C@@H]3CCC4=CC(=O)CC[C@]4(C)[C@H]3CC[C@]12C")
36

Activity in this record for O=c1c(O)c(-c2cc(O)c(O)c(O)c2)oc2cc(O)cc(O)c12 : 24
